The reported measurements were obtained from the supplement of paper PMC7556523.

# Test system: Sporothrix brasiliensis CBS 133006
# assayExplanation: growth inhibition relative to untreated control; higher = more growth inhibition (more antifungal activity), active = 80 or more; extreme values may be limits of the assay
# testConditions: 1 µM; 48 h
assayReadout: growth inhibition

Use the examples below as a reference point.
compound	assayReadout	observedMeasurement
CO/N=C(\C(=O)OC)c1ccccc1CO/N=C(\C)c1cccc(C(F)(F)F)c1	growth inhibition	96.8% (active)
CC1COC(Cn2cncn2)(c2ccc(Oc3ccc(Cl)cc3)cc2Cl)O1 (centres undefined)	growth inhibition	97% (active)
Cc1nn(Cc2ccccc2)c(Cl)c1C(=O)NC1CCCCCC1	growth inhibition	21.5% (inactive)
CC(C)(C)C(O)C(Oc1ccc(-c2ccccc2)cc1)n1cncn1 (centres undefined)	growth inhibition	67.5% (inactive)

Entry CCc1nn(C)c(C(=O)NCc2ccc(Oc3ccc(C)cc3)cc2)c1Cl ; growth inhibition = 93.2% (active)

The compound listed as O=C1O[C@@H](CO)CN1c1cc(F)c(C2=CCN(Cc3ccccc3)CC2)c(F)c1 has a reported growth inhibition of 6.75% (inactive)

response.value for CO/C=C(/C(=O)OC)c1ccccc1Oc1cc(Oc2ccccc2C#N)ncn1 (field: growth inhibition) = 95.5% (active)

Record O=C1O[C@@H](COc2ccon2)CN1c1cc(F)c(C2=CCN(Cc3ccccc3)CC2)c(F)c1 , field growth inhibition: 2% (inactive)

Form: compound = Nc1c2c(nc3sc4c(c13)CCCC4)CCCC2 ; growth inhibition = 6.75% (inactive)

----------
Measured growth inhibition, listed per entry.
# System: Sporothrix schenckii ATCC 32286
# assayExplanation: growth inhibition relative to untreated control; higher = more growth inhibition (more antifungal activity), active = 80 or more; extreme values may be limits of the assay
# testConditions: 1 µM; 48 h
Field: numeric (%). Do not append units.

Some molecules with known growth inhibition results, for comparison:
molecule	measuredTarget	unitsOfMeasure	observedMeasurement
CC1COC(Cn2cncn2)(c2ccc(Oc3ccc(Cl)cc3)cc2Cl)O1 (configuration not stated)	Sporothrix schenckii ATCC 32286	%	70.2
O=C1O[C@@H](COc2ccon2)CN1c1cc(F)c(C2=CCN(Cc3ccccc3)CC2)c(F)c1	Sporothrix schenckii ATCC 32286	%	0
CO/N=C(\C(=O)OC)c1ccccc1CO/N=C(\C)c1cccc(C(F)(F)F)c1	Sporothrix schenckii ATCC 32286	%	40
O=C1O[C@@H](CO)CN1c1cc(F)c(C2=CCN(Cc3ccccc3)CC2)c(F)c1	Sporothrix schenckii ATCC 32286	%	0.5
Cc1cc(C2=NOC(c3cc(Cl)c(F)c(Cl)c3)(C(F)(F)F)C2)ccc1C(=O)NCc1ccc2c(c1)C(C)(C)OB2O (configuration not stated)	Sporothrix schenckii ATCC 32286	%	18.2
Cc1nn(C)c(C)c1NS(=O)(=O)c1c(Cl)cc(-c2ccnc(N3CCNCC3)c2)cc1Cl	Sporothrix schenckii ATCC 32286	%	17.5

Lab note: measured growth inhibition of Cc1cccc(C(=O)Nc2ccnc(N(C)C3CCN(CC(C)C)CC3)c2)c1 was 9
